Assay: Plasma level of thienamycin class compound in the mouse
Type: in vivo
Conditions: po, 10 mg/kg, 60 minutes, compound alone, 10 mg/kg oral
quantity: concentration at 1 h
I'd appreciate it if you included the unit after the number.

Asked: Answer with the recorded concentration at 1 h for the compound listed here: CCSC1=C(C(=O)O)N2C(=O)[C@H]([C@@H](C)O)[C@H]2S1 (relative stereo) [Thienamycin Class Compound]
Given back: 4400 µg/mL

====

Test: Urinary recovery of thienamycin in the mouse with co-administered inhibitor
Type: in vivo
Details: urine, Table IV, THM alone 10 mg/kg SC, read-out: Urinary Recovery THM, %
quantity: dose excreted at 4 h (%)
Numbers only, in %.

Asked: Answer with the recorded dose excreted at 4 h for the compound listed here: C[C@@H](O)[C@H]1C(=O)N2C(C(=O)O)=C(SCCN)C[C@H]12
Given back: 30

====

Experiment: Urinary recovery of thienamycin class compound in the mouse
Format: in vivo
Conditions: urine, po, 10 mg/kg, Total, 10 mg/kg oral plus inhibitor (40 mg/kg SC + 40 mg/kg per os)
Protocol: An in vivo assay is conducted using 34 Charles River CD female mice. Seventeen of the mice are administered 40 mg/kg of the inhibitor 7-(L-2-amino-2-carboxyethylthio)-2-(2,2-dimethylcyclopropanecarboxamido)-2-heptenoic acid subcutaneously, and an additional 40 mg/kg per os. Immediately thereafter they and an additional 17 mice are administered 10 mg/kg of the thienamycin class compoud (±)-[5R,6S]-2-ethylthio-6[(R)-1-hydroxyethyl]-pen-2-em-3-sodiocarboxylate by oral gavage. […]
quantity: dose excreted

Asked: Answer with the recorded dose excreted for the molecule listed here: CCSC1=C(C(=O)O)N2C(=O)[C@H]([C@@H](C)O)[C@H]2S1 (relative stereo) [Thienamycin Class Compound]
Given back: 3.8%

====

Target: renal dipeptidase (E.C.3.4.13.11) (Sus scrofa, UniProt P22412)
Construct: solubilized preparation of dipeptidase isolated from hog kidneys; from tissue; host or cells: hog kidney
Sequence (P22412 17-409): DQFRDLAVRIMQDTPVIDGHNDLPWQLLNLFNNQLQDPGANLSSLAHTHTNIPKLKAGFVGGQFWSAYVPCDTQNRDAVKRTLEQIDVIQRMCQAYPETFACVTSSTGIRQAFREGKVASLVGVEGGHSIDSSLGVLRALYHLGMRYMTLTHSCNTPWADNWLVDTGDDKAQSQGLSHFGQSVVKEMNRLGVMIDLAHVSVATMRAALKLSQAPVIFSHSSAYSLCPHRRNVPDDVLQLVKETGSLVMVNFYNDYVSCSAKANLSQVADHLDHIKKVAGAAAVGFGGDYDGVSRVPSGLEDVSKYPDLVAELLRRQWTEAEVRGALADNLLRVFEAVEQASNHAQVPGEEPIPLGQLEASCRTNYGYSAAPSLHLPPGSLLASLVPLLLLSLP
Test: Inhibition of glycyldehydrophenylalanine (GDP) hydrolysis by renal dipeptidase in vitro
Assay type: biochemical, pig (hog)
quantity: Ki (nM)
One number for each entry, in nM.

Asked: Answer with the recorded Ki for the molecule listed here: CC1(C)CC1C(=O)N/C(=C\CCCCSC[C@H](N)C(=O)O)C(=O)O (stereo partly shown)
Given back: 210

====

Assay: Plasma level of thienamycin class compound in the mouse
Type: in vivo
Conditions: po, 10 mg/kg, 30 minutes, 10 mg/kg oral plus inhibitor (40 mg/kg SC + 40 mg/kg per os)
quantity: concentration at 0.5 h (µg/mL)
Answers are plain numbers, in µg/mL.

Asked: Answer with the recorded concentration at 0.5 h for the molecule listed here: CCSC1=C(C(=O)O)N2C(=O)[C@H]([C@@H](C)O)[C@H]2S1 (relative stereo) [Thienamycin Class Compound]
Given back: 4800

====

Target: renal dipeptidase (E.C.3.4.13.11) (Sus scrofa, UniProt P22412)
Construct: solubilized preparation of dipeptidase isolated from hog kidneys; from tissue; host or cells: hog kidney
Test: Inhibition of glycyldehydrophenylalanine (GDP) hydrolysis by renal dipeptidase in vitro
Assay type: biochemical, pig (hog)
Conditions: concentration producing 50% inhibition; substrate GDP 0.05 mM; pH 7.1; 37° C.; read-out: Ki
Provide the reported pKi of each item.
Give bare numbers, as −log10 of the molar value.

Asked: Answer with the recorded pKi for the compound listed here: C/C=C(\NC(=O)C1CC1(C)C(C)C)C(=O)O (centres unmarked)
Given back: 5.52

Respectfully, I request pKi for each entry included below.
1. CCCCC/C=C(\NC(=O)[C@H]1CC1(C)C)C(=O)O
2. C/C=C(\NC(=O)C1CCC1)C(=O)O
3. CC1(C)CC1C(=O)N/C(=C\CC1CCCCC1)C(=O)O (centres unmarked)
4. CSCC/C=C(\NC(=O)C1CC1(C)C)C(=O)O (centres unmarked)
5. C/C=C(\NC(=O)C1CC1CC)C(=O)O (centres unmarked)
6. CCCC/C=C(\NC(=O)C1CC1(C)C)C(=O)O (centres unmarked)
7. CCCCC/C=C(\NC(=O)C1CC1(C)C)C(=O)O (centres unmarked)

Given back:
7.10
5.21
6.82
6.92
5.80
6.96
6.77

Respectfully, I request pKi for each entry included below.
1. C/C=C(\NC(=O)C1CC1C(C)(C)C)C(=O)O (centres unmarked)
2. C/C=C(\NC(=O)C1CC1(C)CC)C(=O)O (centres unmarked)
3. O=C(O)CC/C=C(\NC(=O)C1CC1)C(=O)O
4. CC1(C)CC1C(=O)N/C(=C\c1ccccc1)C(=O)O (centres unmarked)

Given back:
1: 5.19; 2: 6.35; 3: 5.30; 4: 6.21

Respectfully, I request pKi for each entry included below.
1. CC/C=C(\NC(=O)CC(C)C)C(=O)O
2. CC(C)CC/C=C(\NC(=O)C1CC1(C)C)C(=O)O (centres unmarked)

Given back:
1. 5.49
2. 6.82
